The reported measurements were obtained from PubChem BioAssay.

Test Method Notes: basal S. cerevisiae growth modulation, no modifier, primary screen, OD600, strain BY4716, 24 h, basal condition (AID 1173)
Applied Conditions: OD600, 24 h, higher = more signal, called active from +8 up or from −8 down
Our labelling divides records by z-score into ranges: c1 = under -0.6, c2 = from -0.6 up to 0.5, c3 = 0.5 and over

Molecule	Class Name
O=C(NCc1ccccc1)[C@@]1(Cc2ccccc2)N=C(c2ccc(OCCCO)cc2)O[C@H]1c1ccccc1	c3
CC(=O)N1Cc2ccccc2C[C@@]2(COC(c3ccc(OCCCO)cc3)=N2)C1=O	c1
C=CCNC(=O)[C@H]1[C@@H]2C(=O)O[C@@H](c3ccccc3)[C@@H](c3ccccc3)N2[C@@H](c2ccc(O)cc2)[C@]12C(=O)N(C(=O)OCCOC)c1ccc(C#CCNC(N)=O)cc12	c3
Cc1ccc(C(C)CC(O)C2C=CC3C(=O)N(C)C(=O)C3N2NC(=O)OC(C)(C)C)o1 (centres undefined)	c1
CN1C(=O)C2C=CC(C(O)c3cc(C(F)(F)F)cc(C(F)(F)F)c3)N(N3CCCCC3)C2C1=O (centres undefined)	c3
C=CCOC(=O)[C@H]1[C@@H]2C(=O)O[C@@H](c3ccccc3)[C@@H](c3ccccc3)N2[C@@H](c2ccc(OCCOC(=O)[C@H]3C[C@H]4C(=O)N5CCC[C@H]5C(=O)N4[C@H]3c3ccc(O)cc3)cc2)[C@]12C(=O)Nc1ccc(I)cc12	c1
COC(=O)c1c(CC[C@@H](CO)NC(=O)N[C@@H](C)Cn2cc(C3(O)CCCCC3)nn2)oc(C(C)=O)c1C(=O)OC	c1
O=C(NCC(F)(F)F)[C@@H]1c2ccccc2C(=O)N(C2CCCCC2)[C@H]1c1ccc(CO)cc1	c3
O=C1OCCC=C[C@H]2OC34C=CCN(CCN5CCOCC5)C(=O)[C@H]3N(CCCCCCO)C(=O)[C@@H]4C12 (some centres undefined)	c2
CN1C(=O)C2C=CC(C(O)C3CC=CCC3)N(NC(=O)OC(C)(C)C)C2C1=O (centres undefined)	c2
CC1CC/C=C\[C@H]2OC34C=CCN(Cn5nnc6ccccc65)C(=O)[C@H]3N(C(CO)C(C)C)C(=O)[C@@H]4C2C(=O)O1 (some centres undefined)	c3
CCN(CC)c1ccc(N2CC=CC34O[C@@H]5/C=C\CCC(C)OC(=O)C5[C@H]3C(=O)N(C(CO)C(C)C)[C@@H]4C2=O)cc1 (some centres undefined)	c2
COc1ccc(C(=O)Nc2ccc(CN3C(=O)[C@@]4(O[C@@H](CC(=O)N5CCC[C@H]5CO)[C@H]([Si](C)(C)c5ccc(OC)cc5)[C@H]4C)c4ccccc43)cc2)cc1	c1
CC(=O)n1cc(C(O)C2C=CC3C(=O)N(C)C(=O)C3N2Nc2ccccc2)c2ccccc21 (centres undefined)	c2
